Tested on: HeLa Kyoto
Test: thermal stability score vs G1/S (z-score of summed log2 fold changes over temperatures); higher = more thermally stable than in G1/S
Details: cell cycle stage: early G1 (4.5 h after nocodazole release)

sequence content: MASLEVSRSPRRSRRELEVRSPRQNKYSVLLPTYNERENLPLIVWLLVKSFSESGINYEIIIIDDGSPDGTRDVAEQLEKIYGSDRILLRPREKKLGLGTAYIHGMKHATGNYIIIMDADLSHHPKFIPEFIRKQKEGNFDIVSGTRYKGNGGVYGWDLKRKIISRGANFLTQILLRPGASDLTGSFRLYRKEVLEKLIEKCVSKGYVFQMEMIVRARQLNYTIGEVPISFVDRVYGESKLGGNEIVSFLKGLLTLFATT [DPM1]
thermal stability score: -2.69
--
sequence content: MPVWGGGNKCGACGRTVYHAEEVQCDGRSFHRCCFLCMVCRKNLDSTTVAIHDEEIYCKSCYGKKYGPKGYGYGQGAGTLNMDRGERLGIKPESVQPHRPTTNPNTSKFAQKYGGAEKCSRCGDSVYAAEKIIGAGKPWHKNCFRCAKCGKSLESTTLTEKEGEIYCKGCYAKNFGPKGFGYGQGAGALVHAQ [CSRP2]
thermal stability score: 1.39
--
sequence content: MATELEYESVLCVKPDVSVYRIPPRASNRGYRASDWKLDQPDWTGRLRITSKGKTAYIKLEDKVSGELFAQAPVEQYPGIAVETVTDSSRYFVIRIQDGTGRSAFIGIGFTDRGDAFDFNVSLQDHFKWVKQESEISKESQEMDARPKLDLGFKEGQTIKLCIGNITNKKGGASKPRTARGGGLSLLPPPPGGKVTIPPPSSSVAISNHVTPPPIPKSNHGGSDADILLDLDSPAPVTTPAPTPVSVSNDLWGDFSTASSSVPNQAPQPSNWVQF [NECAP1]
thermal stability score: 0.202
--
sequence content: MKPDETPMFDPSLLKEVDWSQNTATFSPAISPTHPGEGLVLRPLCTADLNRGFFKVLGQLTETGVVSPEQFMKSFEHMKKSGDYYVTVVEDVTLGQIVATATLIIEHKFIHSCAKRGRVEDVVVSDECRGKQLGKLLLSTLTLLSKKLNCYKITLECLPQNVGFYKKFGYTVSEENYMCRRFLK [GNPNAT1]
thermal stability score: -0.0383

---

System: HeLa Kyoto
Assay: thermal stability score vs G1/S (z-score of summed log2 fold changes over temperatures); higher = more thermally stable than in G1/S
Conditions: cell cycle stage: mitosis
thermal stability score of -0.5 or higher: yes (1). Under -0.5: no (0).

sequence content: MATDELATKLSRRLQMEGEGGGETPEQPGLNGAAAAAAGAPDEAAEALGSADCELSAKLLRRADLNQGIGEPQSPSRRVFNPYTEFKEFSRKQIKDMEKMFKQYDAGRDGFIDLMELKLMMEKLGAPQTHLGLKNMIKEVDEDFDSKLSFREFLLIFRKAAAGELQEDSGLCVLARLSEIDVSSEGVKGAKSFFEAKVQAINVSSRFEEEIKAEQEERKKQAEEMKQRKAAFKELQSTFK [EFHD2]
target under test: HeLa Kyoto
cat: yes (1)
//
sequence content: MSSPQAPEDGQGCGDRGDPPGDLRSVLVTTVLNLEPLDEDLFRGRHYWVPAKRLFGGQIVGQALVAAAKSVSEDVHVHSLHCYFVRAGDPKLPVLYQVERTRTGSSFSVRSVKAVQHGKPIFICQASFQQAQPSPMQHQFSMPTVPPPEELLDCETLIDQYLRDPNLQKRYPLALNRIAAQEVPIEIKPVNPSPLSQLQRMEPKQMFWVRARGYIGEGDMKMHCCVAAYISDYAFLGTALLPHQWQHKVHFMVSLDHSMWFHAPFRADHWMLYECESPWAGGSRGLVHGRLWRQDGVLAVTCAQEGVIRVKPQVSESKL [ACOT8]
target under test: HeLa Kyoto
cat: no (0)
//
sequence content: MAVFADLDLRAGSDLKALRGLVETAAHLGYSVVAINHIVDFKEKKQEIEKPVAVSELFTTLPIVQGKSRPIKILTRLTIIVSDPSHCNVLRATSSRARLYDVVAVFPKTEKLFHIACTHLDVDLVCITVTEKLPFYFKRPPINVAIDRGLAFELVYSPAIKDSTMRRYTISSALNLMQICKGKNVIISSAAERPLEIRGPYDVANLGLLFGLSESDAKAAVSTNCRAALLHGETRKTAFGIISTVKKPRPSEGDEDCLPASKKAKCEG [RPP30]
target under test: HeLa Kyoto
cat: no (0)
//
sequence content: MLRPAGLWRLCRRPWAARVPAENLGRREVTSGVSPRGSTSPRTLNIFDRDLKRKQKNWAARQPEPTKFDYLKEEVGSRIADRVYDIPRNFPLALDLGCGRGYIAQYLNKETIGKFFQADIAENALKNSSETEIPTVSVLADEEFLPFKENTFDLVVSSLSLHWVNDLPRALEQIHYILKPDGVFIGAMFGGDTLYELRCSLQLAETEREGGFSPHISPFTAVNDLGHLLGRAGFNTLTVDTDEIQVNYPGMFELMEDLQGMGESNCAWNRKALLHRDTMLAAAAVYREMYRNEDGSVPATYQIYYMIGWKYHESQARPAERGSATVSFGELGKINNLMPPGKKSQ [NDUFAF5]
target under test: HeLa Kyoto
cat: yes (1)
//
sequence content: MFSRAGVAGLSAWTLQPQWIQVRNMATLKDITRRLKSIKNIQKITKSMKMVAAAKYARAERELKPARIYGLGSLALYEKADIKGPEDKKKHLLIGVSSDRGLCGAIHSSIAKQMKSEVATLTAAGKEVMLVGIGDKIRGILYRTHSDQFLVAFKEVGRKPPTFGDASVIALELLNSGYEFDEGSIIFNKFRSVISYKTEEKPIFSLNTVASADSMSIYDDIDADVLQNYQEYNLANIIYYSLKESTTSEQSARMTAMDNASKNASEMIDKLTLTFNRTRQAVITKELIEIISGAAALD [ATP5C1]
target under test: HeLa Kyoto
cat: yes (1)
//
sequence content: MSSRIARALALVVTLLHLTRLALSTCPAACHCPLEAPKCAPGVGLVRDGCGCCKVCAKQLNEDCSKTQPCDHTKGLECNFGASSTALKGICRAQSEGRPCEYNSRIYQNGESFQPNCKHQCTCIDGAVGCIPLCPQELSLPNLGCPNPRLVKVTGQCCEEWVCDEDSIKDPMEDQDGLLGKELGFDASEVELTRNNELIAVGKGSSLKRLPVFGMEPRILYNPLQGQKCIVQTTSWSQCSKTCGTGISTRVTNDNPECRLVKETRICEVRPCGQPVYSSLKKGKKCSKTKKSPEPVRFTYAGCLSVKKYRPKYCGSCVDGRCCTPQLTRTVKMRFRCEDGETFSKNVMMIQSCKCNYNCPHANEAAFPFYRLFNDIHKFRD [CYR61]
target under test: HeLa Kyoto
cat: yes (1)

---

System: HeLa Kyoto;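 note: synchronized HeLa Kyoto cells, proteins quantified by TMT10plex mass spectrometry, three biological replicates, mitosis taken 0.5 h after nocodazole release, G1/S directly after double thymidine block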
Test: thermal stability score vs G1/S (z-score of summed log2 fold changes over temperatures); higher = more thermally stable than in G1/S
Settings: cell cycle stage: mitosis
test readout: thermal stability score

sequence content: MVLESTMVCVDNSEYMRNGDFLPTRLQAQQDAVNIVCHSKTRSNPENNVGLITLANDCEVLTTLTPDTGRILSKLHTVQPKGKITFCTGIRVAHLALKHRQGKNHKMRIIAFVGSPVEDNEKDLVKLAKRLKKEKVNVDIINFGEEEVNTEKLTAFVNTLNGKDGTGSHLVTVPPGPSLADALISSPILAGEGGAMLGLGASDFEFGVDPSADPELALALRVSMEEQRQRQEEEARRAAAASAAEAGIATTGTEDSDDALLKMTISQQEFGRTGLPDLSSMTEEEQIAYAMQMSLQGAEFGQAESADIDASSAMDTSEPAKEEDDYDVMQDPEFLQSVLENLPGVDPNNEAIRNAMGSLASQATKDGKKDKKEEDKK [PSMD4]
test readout: thermal stability score
numeric result: -1.22

sequence content: MVLESVARIVKVQLPAYLKRLPVPESITGFARLTVSEWLRLLPFLGVLALLGYLAVRPFLPKKKQQKDSLINLKIQKENPKVVNEINIEDLCLTKAAYCRCWRSKTFPACDGSHNKHNELTGDNVGPLILKKKEV [CISD2]
test readout: thermal stability score
numeric result: -5.22

sequence content: MAAPPGEYFSVGSQVSCRTCQEQRLQGEVVAFDYQSKMLALKCPSSSGKPNHADILLINLQYVSEVEIINDRTETPPPLASLNVSKLASKARTEKEEKLSQAYAISAGVSLEGQQLFQTIHKTIKDCKWQEKNIVVMEEVVITPPYQVENCKGKEGSALSHVRKIVEKHFRDVESQKILQRSQAQQPQKEAALSS [LSM12]
test readout: thermal stability score
numeric result: -0.784

sequence content: MADEELEALRRQRLAELQAKHGDPGDAAQQEAKHREAEMRNSILAQVLDQSARARLSNLALVKPEKTKAVENYLIQMARYGQLSEKVSEQGLIEILKKVSQQTEKTTTVKFNRRKVMDSDEDDDY [PDCD5]
test readout: thermal stability score
numeric result: -7.32

sequence content: MTKAGSKGGNLRDKLDGNELDLSLSDLNEVPVKELAALPKATILDLSCNKLTTLPSDFCGLTHLVKLDLSKNKLQQLPADFGRLVNLQHLDLLNNKLVTLPVSFAQLKNLKWLDLKDNPLDPVLAKVAGDCLDEKQCKQCANKVLQHMKAVQADQERERQRRLEVEREAEKKREAKQRAKEAQERELRKREKAEEKERRRKEYDALKAAKREQEKKPKKEANQAPKSKSGSRPRKPPPRKHTRSWAVLKLLLLLLLFGVAGGLVACRVTELQQQPLCTSVNTIYDNAVQGLRRHEILQWVLQTDSQQ [LRRC59]
test readout: thermal stability score
numeric result: -1.3

Measured values drawn from the supplement of paper PMC5998384 for this set.
